# System: MCF7
# METHOD: Cytotoxicity against human MCF7 cells assessed as decrease in number of cells relative to control; call rule not given here
# Type: functional, cell-based
Possible outcomes: active, inactive

molecule="COc1ccc(-n2c(-c3ccccc3)c(-c3ccccc3)c3cc4c(cc3c2=O)C(c2ccccc2)NC(=O)N4)cc1 (centres undefined)" label_class=inactive
molecule=O=C1NCc2cc3c(=O)n(-c4ccc(Cl)cc4)c(-c4ccccc4)c(-c4ccccc4)c3cc2N1 label_class=inactive
molecule="O=C1Nc2cc3c(-c4ccccc4)c(-c4ccccc4)n(-c4ccccc4)c(=O)c3cc2C(c2ccccc2)N1 (centres undefined)" label_class=active
molecule="O=C1Nc2cc3c(-c4ccccc4)c(-c4ccccc4)n(-c4ccc(Cl)cc4)c(=O)c3cc2C(c2ccccc2)N1 (centres undefined)" label_class=active

* * *

# Test system: Aspergillus niger
# METHOD: Antifungal activity against Aspergillus niger at 20 ug/ml by agar plate method
# Assay type: functional
PARAMETER_MEASURED: inhibition at 20 µg/mL (%)

molecule="O=C1Nc2cc3c(-c4ccccc4)c(-c4ccccc4)n(-c4ccccc4)c(=O)c3cc2C(c2ccccc2)N1 (stereo not given)" parameter_measured="inhibition at 20 µg/mL" reading_unit=% readout_qualifier== observed_result=75
molecule="COc1ccc(-n2c(-c3ccccc3)c(-c3ccccc3)c3cc4c(cc3c2=O)C(c2ccccc2)NC(=O)N4)cc1 (stereo not given)" parameter_measured="inhibition at 20 µg/mL" reading_unit=% readout_qualifier=≤ observed_result=25
molecule=O=C1NCc2cc3c(=O)n(-c4ccccc4)c(-c4ccccc4)c(-c4ccccc4)c3cc2N1 parameter_measured="inhibition at 20 µg/mL" reading_unit=% readout_qualifier=≤ observed_result=25
molecule="O=C1Nc2cc3c(-c4ccccc4)c(-c4ccccc4)n(-c4ccc(Cl)cc4)c(=O)c3cc2C(c2ccccc2)N1 (stereo not given)" parameter_measured="inhibition at 20 µg/mL" reading_unit=% readout_qualifier== observed_result=70
molecule=O=C1NCc2cc3c(=O)n(-c4ccc(Cl)cc4)c(-c4ccccc4)c(-c4ccccc4)c3cc2N1 parameter_measured="inhibition at 20 µg/mL" reading_unit=% readout_qualifier=≤ observed_result=25

* * *

# System: Aspergillus flavus
# METHOD: Antifungal activity against Aspergillus flavus at 100 ug/ml by agar plate method
# Type: functional
PARAMETER_MEASURED: inhibition at 100 µg/mL (%)

compound="O=C1Nc2cc3c(-c4ccccc4)c(-c4ccccc4)n(-c4ccc(Cl)cc4)c(=O)c3cc2C(c2ccccc2)N1 (stereo not given)" reading_unit=% readout_qualifier== observed_result=93.3
compound="O=C1Nc2cc3c(-c4ccccc4)c(-c4ccccc4)n(-c4ccccc4)c(=O)c3cc2C(c2ccccc2)N1 (stereo not given)" reading_unit=% readout_qualifier== observed_result=86.7
compound=O=C1NCc2cc3c(=O)n(-c4ccccc4)c(-c4ccccc4)c(-c4ccccc4)c3cc2N1 reading_unit=% readout_qualifier=≤ observed_result=25
compound="COc1ccc(-n2c(-c3ccccc3)c(-c3ccccc3)c3cc4c(cc3c2=O)C(c2ccccc2)NC(=O)N4)cc1 (stereo not given)" reading_unit=% readout_qualifier=≤ observed_result=25
compound=O=C1NCc2cc3c(=O)n(-c4ccc(Cl)cc4)c(-c4ccccc4)c(-c4ccccc4)c3cc2N1 reading_unit=% readout_qualifier=≤ observed_result=25

* * *

# Test system: Aspergillus flavus
# METHOD: Antifungal activity against Aspergillus flavus at 20 ug/ml by agar plate method
# Format: functional
Each entry below carries its recorded inhibition at 20 µg/mL.
PARAMETER_MEASURED: inhibition at 20 µg/mL (%)

molecule="O=C1Nc2cc3c(-c4ccccc4)c(-c4ccccc4)n(-c4ccccc4)c(=O)c3cc2C(c2ccccc2)N1 (stereo not given)" target_under_test="Aspergillus flavus" parameter_measured="inhibition at 20 µg/mL" readout_qualifier== observed_result=60
molecule=O=C1NCc2cc3c(=O)n(-c4ccc(Cl)cc4)c(-c4ccccc4)c(-c4ccccc4)c3cc2N1 target_under_test="Aspergillus flavus" parameter_measured="inhibition at 20 µg/mL" readout_qualifier=≤ observed_result=25
molecule=O=C1NCc2cc3c(=O)n(-c4ccccc4)c(-c4ccccc4)c(-c4ccccc4)c3cc2N1 target_under_test="Aspergillus flavus" parameter_measured="inhibition at 20 µg/mL" readout_qualifier=≤ observed_result=25
molecule="O=C1Nc2cc3c(-c4ccccc4)c(-c4ccccc4)n(-c4ccc(Cl)cc4)c(=O)c3cc2C(c2ccccc2)N1 (stereo not given)" target_under_test="Aspergillus flavus" parameter_measured="inhibition at 20 µg/mL" readout_qualifier== observed_result=76.7
molecule="COc1ccc(-n2c(-c3ccccc3)c(-c3ccccc3)c3cc4c(cc3c2=O)C(c2ccccc2)NC(=O)N4)cc1 (stereo not given)" target_under_test="Aspergillus flavus" parameter_measured="inhibition at 20 µg/mL" readout_qualifier=≤ observed_result=25
